Test system: urethane-anesthetized female rats
PROTOCOL: Leak point pressure by abdominal wall-electrically stimulating method, serotonin 5-HT receptor agonists (Example 3)
Format: in vivo, rat
CONDITION SET: 0.1 mg/kg, i.v.; mean ± SEM
QUANTITY MEASURED: leak point pressure increase (cmH2O)

* Clc1cccc(N2CCNCC2)c1 [mCPP] | 13.2
* O=C1Nc2cc(Cl)c(Cl)cc2N2CCNCC12 (stereo not shown) [WAY-161503] | 12.6
* c1cc2c3c(c1)[C@H]1CCC[C@H]1N3CCNC2 [WAY-163909] | 11.1
* COc1cc(CC(C)N)c(OC)cc1I (stereo not shown) [DOI] | 18.7

---

Listed next: entries and their corresponding leak point pressure after drug administration.
Test system: urethane-anesthetized female rats
PROTOCOL: Leak point pressure by abdominal wall-electrically stimulating method, serotonin 5-HT receptor agonists (Example 3)
Type: in vivo, rat
CONDITION SET: 0.03 mg/kg, i.v.; mean ± SEM
From the text: SD female rats (body weight 180-350 g) were anesthetized with urethane (Wako Pure Chemical Industries, Ltd.), and the spinal cord was transected at T8-9 level to eliminate the reflex voiding. […] The bladder catheter was connected to a pressure transducer, and the signals of the transducer were sent to a computer via an amplifier (blood pressure amplification unit AP-641G; NIHON KOHDEN) and an analog-to-digital converter (BIOPAC; MP100), and recorded on a hard disc. […]
QUANTITY MEASURED: leak point pressure after drug administration

• O=C1Nc2cc(Cl)c(Cl)cc2N2CCNCC12 (stereo not shown) [WAY-161503] = 58.7 ± 6.8 cmH2O
• COc1cc(CC(C)N)c(OC)cc1I (stereo not shown) [DOI] = 50.1 ± 7.1 cmH2O
• c1cc2c3c(c1)[C@H]1CCC[C@H]1N3CCNC2 [WAY-163909] = 43.0 ± 6.3 cmH2O
• Clc1cccc(N2CCNCC2)c1 [mCPP] = 52.3 ± 4.3 cmH2O

---

Tested on: urethane-anesthetized female rats
PROTOCOL: Leak point pressure by direct compressing of the bladder (Example 4)
Assay type: in vivo, rat
CONDITION SET: 0.03 mg/kg, i.v.; mean ± SEM
Method: SD female rats (body weight 180-350 g) were anesthetized with urethane (Wako Pure Chemical Industries, Ltd.), and halothane (Takeda Pharmaceutical Company Limited) anesthesia was added when necessary during operation. The spinal cord was transected at T8-9 level to eliminate the reflex voiding. […] The bladder was gradually compressed bilaterally with two swabs, and the intravesical pressure upon saline leakage from the urethral orifice was measured and defined as a leak point pressure. […]
QUANTITY MEASURED: leak point pressure increase

* CNCC[C@H](Oc1cccc2ccccc12)c1cccs1 [duloxetine] | 6.5 ± 1.6 cmH2O
* Clc1cccc(N2CCNCC2)c1 [mCPP] | 11.6 ± 3.1 cmH2O
* O=C1Nc2cc(Cl)c(Cl)cc2N2CCNCC12 (centres unmarked) [WAY-161503] | 7.1 ± 2.4 cmH2O
* COc1cc(CC(C)N)c(OC)cc1I (centres unmarked) [DOI] | 6.2 ± 2.9 cmH2O
* c1cc2c3c(c1)[C@H]1CCC[C@H]1N3CCNC2 [WAY-163909] | 6.6 ± 2.2 cmH2O

---

Tested on: urethane-anesthetized female rats
PROTOCOL: Leak point pressure by direct compressing of the bladder (Example 4)
Type: in vivo, rat
CONDITION SET: 1 mg/kg, i.v.; mean ± SEM
Method: SD female rats (body weight 180-350 g) were anesthetized with urethane (Wako Pure Chemical Industries, Ltd.), and halothane (Takeda Pharmaceutical Company Limited) anesthesia was added when necessary during operation. The spinal cord was transected at T8-9 level to eliminate the reflex voiding. […] The bladder was gradually compressed bilaterally with two swabs, and the intravesical pressure upon saline leakage from the urethral orifice was measured and defined as a leak point pressure. […]
QUANTITY MEASURED: leak point pressure increase (cmH2O)

• c1cc2c(c(N3CCNCC3)c1)OCCO2 = 8.0
• COc1cc(CC(C)N)c(OC)cc1I (stereo not shown) = 22.6
• c1cc2c3c(c1)[C@H]1CCC[C@H]1N3CCNC2 = 20.4
• CNCC[C@H](Oc1cccc2ccccc12)c1cccs1 = 13.9
